// values below are reported Anti-CD28 Fab (SEQ ID NOs: 696, 697) signal
- measuredOn: T1, Anti-CD28 Fab (SEQ ID NOs: 696, 697)
- T1 construct: Biotinylated and captured on neutravidin coated plates in the phage ELISA
- assayMethodText: phage binding ELISA; biotinylated Fab on neutravidin plate, clonal phage supernatant, anti-M13 HRP;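 note: clones picked after panning, added to wells pre-incubated with CD28 antigen or with blocking buffer only, no wash before phage addition, bound phage read after washing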
Where no end group is shown, it is not given here.
// no unit string in output, number only

Some binders with recorded Anti-CD28 Fab (SEQ ID NOs: 696, 697) signal:
>  <binder>
YCDGHLPMYMQKCL (cysteine pairing not given here; also: displayed on phage as fusion to pIII, linker, pIII sequence and order not given here, Clonal phage supernatant; not shown: pIII filament protein of the bacteriophage to which the peptide is fused) [Phage-535]

>  <val>
2.33

$$$$
>  <binder>
YCDGHLPEYMSKCL (cysteine pairing not given here; also: displayed on phage as fusion to pIII, linker, pIII sequence and order not given here, Clonal phage supernatant; not shown: pIII filament protein of the bacteriophage to which the peptide is fused) [Phage-527]

>  <val>
2.35

$$$$
>  <binder>
YCEGHSWANLGKCL (cysteine pairing not given here; also: displayed on phage as fusion to pIII, linker, pIII sequence and order not given here, Clonal phage supernatant; not shown: pIII filament protein of the bacteriophage to which the peptide is fused) [Phage-537]

>  <val>
2.32

$$$$

The record that follows has no Anti-CD28 Fab (SEQ ID NOs: 696, 697) signal shown yet.
Return the recorded Anti-CD28 Fab (SEQ ID NOs: 696, 697) signal value; entry: YCDGHLPQYMAKCL (cysteine pairing not given here; also: displayed on phage as fusion to pIII, linker, pIII sequence and order not given here, Clonal phage supernatant; not shown: pIII filament protein of the bacteriophage to which the peptide is fused) [Phage-528] 2.35
